The measurements presented in this section are drawn from PubChem BioAssay (NCI).

Test system: HCT-116 colon
test-method-notes: NCI-60 one-dose screen, 48 h
condition-notes: 10 µM unless noted
Compounds without any hit were thinned out: in the full panel of roughly 83,000, 20% have a hit. Activity calls are given as the source filed them. The calls were made as follows: active = growth percent below 10; inactive = the rest.
Hi! Could you answer with just one of these? active, inactive

Please review the following examples before continuing.
compound | assigned-category
O=C(N1c2ccccc2Sc2ccccc21)n1ccc2cccnc21 | inactive
CSc1ccc(C(=O)Nc2ccc3nnn(/C(C#N)=C/c4ccccn4)c3c2)cc1 | active
Cc1ccccc1[C@H]1C(C(=O)c2ccc(Cl)cc2)C2(N[C@@H]1c1ccccc1)C(=O)Nc1ccccc12 (stereo partly drawn) | active
Cc1ccc2c(N)c(C(=O)Nc3ccc(-c4ccccc4)cc3)sc2n1 | inactive
Cc1cc2nc3c4ccccc4n(CCNCCN(C)C)c3nc2cc1C | active

Kindly provide the recorded test outcome for the following compound: Clc1cccc(-c2ccc(OCCCN3CCN(c4ccncc4)CC3)cc2)c1
active

Kindly provide the recorded test outcome for the following compound: O=C(NNc1nc2cc(F)ccc2n2c(C(=O)N3CCN(C4CC4)CC3)ccc12)c1ncccn1
inactive

Kindly provide the recorded test outcome for the following compound: COc1ccc(/C=C/c2nc3ccccc3c(=O)n2CC(=O)Nc2ccc(Cl)cc2)cc1
inactive
